Provenance of the data: ChEMBL document CHEMBL4330154

Molecular target: Neuronal acetylcholine receptor subunit alpha-7 (Homo sapiens, UniProt P36544)
Sequence (P36544 whole entry): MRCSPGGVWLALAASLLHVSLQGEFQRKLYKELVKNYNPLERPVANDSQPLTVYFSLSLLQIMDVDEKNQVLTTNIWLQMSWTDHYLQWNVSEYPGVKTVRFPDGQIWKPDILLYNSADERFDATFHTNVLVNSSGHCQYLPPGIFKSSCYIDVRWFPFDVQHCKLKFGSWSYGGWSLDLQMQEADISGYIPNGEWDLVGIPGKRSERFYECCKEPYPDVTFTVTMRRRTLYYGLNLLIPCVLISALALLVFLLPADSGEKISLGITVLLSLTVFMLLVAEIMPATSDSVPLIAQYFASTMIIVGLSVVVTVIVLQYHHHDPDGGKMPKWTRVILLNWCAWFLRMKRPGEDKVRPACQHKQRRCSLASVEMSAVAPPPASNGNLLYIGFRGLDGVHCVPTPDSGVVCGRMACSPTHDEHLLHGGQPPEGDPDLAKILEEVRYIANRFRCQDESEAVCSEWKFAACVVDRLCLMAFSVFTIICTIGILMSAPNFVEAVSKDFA
Test: Antagonist activity at human alpha7 nAChR expressed in Xenopus laevis oocytes assessed as inhibition of ACh-induced inward current at -60 mV holding potential preincubated for 1 min followed by ACh addition by two-microelectrode voltage clamp assay
Type: cell-based
Measure: inhibition

{"Compound": "CN1CCCC1c1cncc(-c2cn(CCOCCOCCOCCOCCOCCOCCOCCOCCOCCOCCOCCn3cc(-c4cncc(C5CCCN5C)c4)nn3)nn2)c1 (stereo not drawn)", "Tested On": "Neuronal acetylcholine receptor subunit alpha-7 (Homo sapiens, UniProt P36544)", "Result": "Dose-dependent effect"}
{"Compound": "CN1CCCC1c1cncc(-c2cn(CCOCCOCCOCCOCCOCCOCCOCCn3cc(-c4cncc(C5CCCN5C)c4)nn3)nn2)c1 (stereo not drawn)", "Tested On": "Neuronal acetylcholine receptor subunit alpha-7 (Homo sapiens, UniProt P36544)", "Result": "Dose-dependent effect"}
{"Compound": "CN1CCCC1c1cncc(-c2cn(C[C@H]3O[C@@H]4O[C@H]5[C@H](O)[C@@H](O)[C@@H](O[C@H]6[C@H](O)[C@@H](O)[C@@H](O[C@H]7[C@H](O)[C@@H](O)[C@@H](O[C@H]8[C@H](O)[C@@H](O)[C@@H](O[C@H]9[C@H](O)[C@@H](O)[C@@H](O[C@H]%10[C@H](O)[C@@H](O)[C@@H](O[C@H]3[C@H](O)[C@H]4O)O[C@@H]%10CO)O[C@@H]9CO)O[C@@H]8CO)O[C@@H]7CO)O[C@@H]6CO)O[C@@H]5CO)nn2)c1 (stereo partly drawn)", "Tested On": "Neuronal acetylcholine receptor subunit alpha-7 (Homo sapiens, UniProt P36544)", "Result": "Dose-dependent effect"}
